- Tested on: IKK-alpha
- Construct: gene CHUK
- CONDITION LABEL: concentration: 1 μM, replicates: in singlicate; n = 1;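 further: KINOMEscan kinase panel screen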
Task for the reader: assign each of the following compounds its reported %Inh.
Give bare numbers, in %.

Below: 4 compounds and their reported %Inh.
Lookup result for Cc1ccc(S(=O)(=O)Nc2ccc(Nc3nccc(Nc4cccc5[nH]ncc45)n3)cc2)cc1 [GSK581271] ; measured %Inh: 10

Lookup result for CCS(=O)(=O)c1ccc(OC)c(Nc2nccc(-c3c(-c4cccc(NC(=O)c5c(F)cccc5F)c4)nn4ncccc34)n2)c1 [GSK326180] ; measured %Inh: 27

Lookup result for COC(=O)Nc1nc2cc(Oc3ccc(NC(=O)Nc4cc(C(F)(F)F)ccc4F)cn3)ccc2[nH]1.Cl.Cl [GW681170] ; measured %Inh: 66

Lookup result for COc1cc(Nc2nccc(-c3c(-c4cccc(NC(=O)c5c(F)cccc5F)c4)nn4ncccc34)n2)cc(OC)c1OC [GSK327238] ; measured %Inh: 0

For every item below, please supply its %Inh.
1. O=C(Nc1cccc(-c2nn3ncccc3c2-c2ccnc(Nc3ccccc3)n2)c1)c1c(F)cccc1F [GSK198271]
2. CCn1c(-c2nonc2N)nc2c(C#CC(C)(C)O)nc(OC[C@H](N)c3ccccc3)cc21 [GSK943949]
3. Cc1cccc(Nc2nc(N[C@H]3CCNC3)ncc2C(N)=O)c1.Cl [GSK2197149]
4. O=C(Nc1ccccc1F)NC1CCN(c2ccnc(Nc3ccc(F)cc3)n2)CC1 [GSK1379800]
5. COc1cccc(NC(=O)NC2CCN(c3ccnc(Nc4cc(OC)c(OC)c(OC)c4)n3)C2)c1 (stereo not shown) [GSK1379763]

A:
1: 0; 2: 0; 3: 35; 4: 0; 5: 0

Lookup result for CC(=O)N1CCN(c2ccc(Nc3nccc(-c4sc(C(C)C)nc4-c4cccc(NS(=O)(=O)c5cccc(Cl)c5)c4)n3)cn2)CC1 [GSK1660437] ; measured %Inh: 0

----------
- Tested on: FER
- CONDITION LABEL: concentration: 1 μM, replicates: in singlicate; n = 1
PARAMETER MEASURED: %Inh (%)
Give bare numbers, in %.

Below: 6 molecules and their reported %Inh.
Lookup result for O=C(O)C(F)(F)F.O=C(O)C(F)(F)F.O=c1[nH]ccc2nc(N[C@@H]3CCCNC3)nc(Nc3ccc(S(=O)(=O)N4CCOCC4)cc3)c12 [GSK2177277] ; measured %Inh: 95.4

Lookup result for COc1ccc(CNC(=O)NC2CCN(c3ccnc(Nc4ccc(F)cc4)n3)CC2)cc1 [GSK1379788] ; measured %Inh: 17

Lookup result for C[C@@H](Oc1cc(-n2cnc3cc(-c4ccnc(NCCS(C)(=O)=O)c4)ccc32)sc1C(N)=O)c1ccccc1Cl [GSK907232] ; measured %Inh: 21

Lookup result for O=C(Nc1ccccc1F)NC1CCN(c2ccnc(Nc3ccc(F)cc3)n2)CC1 [GSK1379800] ; measured %Inh: 15

Lookup result for O=C(Nc1cccc(-c2nn3ccccc3c2-c2ccnc(Nc3cccc(C(F)(F)F)c3)n2)c1)c1c(F)cccc1F [GSK292658] ; measured %Inh: 3

Lookup result for CN1CCN(CCCNc2nccc(-c3c(-c4ccc(F)cc4)nn4cc(C(F)(F)F)ccc34)n2)CC1 [GW621581] ; measured %Inh: 0

For every item below, please supply its %Inh.
1. O=C(Nc1cccc(-c2nn3ccccc3c2-c2ccnc(Nc3cccc(F)c3)n2)c1)c1c(F)ccc(F)c1Cl [GSK357952]
2. COc1ccc(Nc2nccc(NCCNC(=O)c3cc4ccccc4s3)n2)cc1 [GSK1379896]
3. Cc1cccc(Nc2nc(N[C@H]3CCNC3)ncc2C(N)=O)c1.Cl [GSK2197149]
4. CCc1ccc(-c2ccc3c(c2)-c2c(cnn2C)S(=O)(=O)N3C)cc1
5. COc1ccc(Nc2nccc(N3CCC(NC(=O)Nc4cccc(OC)c4)C3)n2)cc1 (centres unmarked) [GSK1379742]
6. Cc1ccc(F)c(C(=O)Nc2cccc(-c3nn4ccccc4c3-c3ccnc(Nc4cccc(F)c4)n3)c2)c1F [GSK361061]
7. CNC(=O)c1ccccc1Nc1nc(Nc2ccc(N3CCOCC3)cc2)ncc1Cl.Cl [GSK1576028]
8. COc1cccc(C2=C(Nc3ccc(Cl)c(C(=O)O)c3)C(=O)NC2=O)c1 [SB-390769]

A:
[45, 12, 69, 0, 26, 40, 97.7, 7]

----------
- Test system: GCN2(Kin.Dom.2,S808G)
- Construct: gene EIF2AK4
- CONDITION LABEL: concentration: 1 μM, replicates: in singlicate; n = 1
Values of %Inh strictly less than 30% map to y, and values of at least 30% map to n.

Q: Answer whether the compound Cn1cc(-c2ccc3c(c2)CCN3C(=O)Cc2cccc(Cl)c2)c2c(N)ncnc21 has %Inh strictly less than 30%
A: n

Continuing:
Q: Answer whether the compound O=C(Nc1cccc(-c2nn3ncccc3c2-c2ccnc(Nc3ccccc3)n2)c1)c1c(F)cccc1F has %Inh strictly less than 30%
A: n

Q: Answer whether the compound Cl.c1ccc(-c2ccc3c(Nc4ccc5[nH]ncc5c4)ccnc3c2)nc1 has %Inh strictly less than 30%
A: y

Q: Answer whether the compound COc1cc(Nc2nccc(-c3c(-c4cccc(NC(=O)c5c(F)cccc5F)c4)nn4ncccc34)n2)cc(OC)c1OC has %Inh strictly less than 30%
A: n

Q: Answer whether the compound COc1cc(Nc2nccc(N3CCC(NC(=O)c4cc5ccccc5s4)C3)n2)cc(OC)c1OC (stereo not drawn) has %Inh strictly less than 30%
A: y

Q: Answer whether the compound Cc1cccc(Nc2nc(N[C@H]3CCNC3)ncc2C(N)=O)c1.Cl has %Inh strictly less than 30%
A: y

----------
- Tested on: PIK3CG
- CONDITION LABEL: concentration: 1 μM, replicates: in singlicate; n = 1
Task for the reader: assign each of the following compounds its reported %Inh.
One number for each entry, in %.

Below: 4 compounds and their reported %Inh.
Lookup result for Cn1cc(-c2ccc3c(c2)CCN3C(=O)Cc2cccc(Cl)c2)c2c(N)ncnc21 ; measured %Inh: 39

Lookup result for FC(F)(F)c1ccc(/C=C/c2cncnc2Nc2ccc3[nH]c(Cc4ccccc4)nc3c2)cc1 ; measured %Inh: 0

Lookup result for COc1cc2c(cc1OCCN1CCNCC1)ncc1c3ccc(C#N)cc3[nH]c21 ; measured %Inh: 31

Lookup result for O=C(NC1CCN(c2ccnc(Nc3ccc(F)cc3)n2)C1)c1cc2ccccc2s1 (stereo not drawn) ; measured %Inh: 0

For every item below, please supply its %Inh.
1. CC(=O)Nc1nc2cnc(Nc3cc(NC(=O)c4cccc(C5(C#N)CC5)c4Cl)ccc3C)nc2s1
2. Cc1occc1-c1ncc(OC[C@@H](N)Cc2c[nH]c3ccccc23)cc1-c1ccc2[nH]nc(C)c2c1.O=C(O)C(F)(F)F
3. Oc1cc(Nc2ccnc3cc(I)ccc23)ccc1F
4. O=C(Nc1cccc(-c2nn3ccccc3c2-c2ccnc(Nc3cccc(C(F)(F)F)c3)n2)c1)c1c(F)cccc1F

A:
0
0
0
0

For every item below, please supply its %Inh.
1. O=C(Nc1cccc(-c2nn3ccccc3c2-c2ccnc(Nc3cccc(F)c3)n2)c1)c1c(F)ccc(F)c1Cl
2. CN1CCN(Cc2cccc(-c3ccc4c(Nc5ccc(Oc6ccccc6)cc5)ccnc4c3)c2)CC1
3. O=C(Nc1n[nH]c2nc(-c3ccc(O)cc3)ccc12)C1CC1

A:
0
1
2

Lookup result for c1ccc(-c2cnc3nccnn23)cc1 ; measured %Inh: 0

----------
- Test system: RIOK3
- CONDITION LABEL: concentration: 1 μM, replicates: in singlicate; n = 1
PARAMETER MEASURED: %Inh (%)
Answers are plain numbers, in %.

Lookup result for Cc1ccc(F)c(C(=O)Nc2cccc(-c3nn4ccccc4c3-c3ccnc(Nc4cccc(F)c4)n3)c2)c1F ; measured %Inh: 5

Lookup result for COc1cccc(C2=C(Nc3ccc(Cl)c(C(=O)O)c3)C(=O)NC2=O)c1 ; measured %Inh: 5

Lookup result for COC(=O)Nc1nc2ccc(Oc3ccc(NC(=O)Nc4cc(C(F)(F)F)ccc4F)cc3)cc2n1C.Cl ; measured %Inh: 0

Lookup result for COc1ccc(Nc2nccc(NCCNC(=O)c3cc4ccccc4s3)n2)cc1 ; measured %Inh: 0

Lookup result for Cc1ccc(S(=O)(=O)Nc2ccc(Nc3nccc(Nc4cccc5[nH]ncc45)n3)cc2)cc1 ; measured %Inh: 34

For every item below, please supply its %Inh.
1. COc1cc(Nc2ncc3c(C)nc(-c4cc5ccccc5[nH]4)n3n2)cc(OC)c1OC
2. CN1CCN(Cc2cccc(-c3ccc4c(Nc5ccc(Oc6ccccc6)cc5)ccnc4c3)c2)CC1
3. Fc1ccc(-c2ncn(C3CCNCC3)c2-c2ccnc(Oc3ccc(-c4ccccc4)cc3)n2)cc1
4. CC(C)(C)c1ccc2nccc(Nc3cccc(O)c3)c2c1
5. Cn1cc(-c2ccc3c(c2)CCN3C(=O)Cc2cccc(F)c2)c2c(N)ncnc21
6. Nc1ncnc2c1nc(-c1ccccc1)n2-c1ccccc1
7. COc1cc(Nc2nccc(N3CCC(NC(=O)Nc4cccc(C(C)=O)c4)C3)n2)cc(OC)c1OC (stereo not shown)

A:
1: 23; 2: 32; 3: 5; 4: 24; 5: 0; 6: 6; 7: 65

For every item below, please supply its %Inh.
1. COc1cc(Nc2nccc(N3CCC(NC(=O)c4cc5ccccc5s4)C3)n2)cc(OC)c1OC (stereo not shown)
2. COc1cccc(C(=O)Nc2cccc(Oc3ccc4nc(NC(=O)C5CC5)cn4n3)c2)c1
3. CCn1c(-c2nonc2N)nc2c(C#CC(C)(C)O)ncc(OCCCCN)c21.O=C(O)C(F)(F)F.O=C(O)C(F)(F)F
4. c1ccc(Oc2ccc(Nc3ccnc4cc(-c5ccc(CNCCN6CCOCC6)o5)ccc34)cc2)nc1
5. C[C@@H](Oc1cc(-n2cnc3cc(-c4ccnc(NCCS(C)(=O)=O)c4)ccc32)sc1C(N)=O)c1ccccc1Cl

A:
53
39
0
0
76

For every item below, please supply its %Inh.
1. Cn1cc(-c2[nH]c3cc(NC(=O)[C@H](N)C4CCCCC4)cc4c3c2C=NNC4=O)cn1
2. Cl.Cl.NCC(C(=O)Nc1cc(Br)c(-c2ccnc3[nH]ccc23)s1)c1ccccc1 (stereo not shown)
3. O=C(Nc1cccc(-c2nn3ncccc3c2-c2ccnc(Nc3ccccc3)n2)c1)c1c(F)cccc1F

A:
1. 88
2. 67
3. 16

For every item below, please supply its %Inh.
1. CCCCc1nn2ncccc2c1-c1ccnc(Nc2ccc(N3CCN(C)CC3)cc2)n1
2. CSc1cccc2c(-c3ccncn3)c(-c3ccc(F)cc3)nn12

A:
1: 49; 2: 21
